- assay info: Multiple component PK study in rat plasma after p.o. GDDP (HPLC-MS)
- cond: Sprague-Dawley, rat, plasma, po, 0.4 g/kg
observed property: MRT last (h)
// units = h; emit number, no label

{"columns": ["compound", "value measured"],
 "data": [
  ["Cc1cccc2c3c(ccc12)C1=C(C(=O)C3=O)[C@@H](C)CO1 [DHTS I, dihydrotanshinone I]", 5.17]
]}

Entry CC(C)=CCC[C@](C)(O[C@@H]1O[C@H](CO)[C@@H](O)[C@H](O)[C@H]1O)[C@H]1CC[C@]2(C)[C@@H]1[C@H](O)C[C@@H]1[C@@]3(C)CC[C@H](O)C(C)(C)[C@@H]3[C@@H](O[C@@H]3O[C@H](CO)[C@@H](O)[C@H](O)[C@H]3O[C@@H]3OC[C@@H](O)[C@H](O)[C@H]3O)C[C@]12C [R1, notoginsenoside R1] : reported MRT last = ?
1.1
